Each entry below lists one item and its recorded Kd value.
# Target under test: T1, hu-CD74 antigen (R&D SYSTEMS catalog #3590-CD-050) (human, UniProt P04233-2 73-232, limits assumed)
# T1 construct: Bought antigen; also called rhCD74; human CD74
# T1 sequence (looked up): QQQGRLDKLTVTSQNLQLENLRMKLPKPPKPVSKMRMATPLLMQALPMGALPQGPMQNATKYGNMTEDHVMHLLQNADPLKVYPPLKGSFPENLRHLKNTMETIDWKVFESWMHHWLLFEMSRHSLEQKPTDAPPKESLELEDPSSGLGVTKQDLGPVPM
# Assay notes: SPR (Biacore T200), IgG captured on anti-human Fc, rhCD74 analyte

| Binder | Unit spec | Kd |
| --- | --- | --- |
| HC 1251_B08 (wt)/LC 1337_A10 (wt) (antibody, human IgG1, kappa, V domains shown, IgG format) VH: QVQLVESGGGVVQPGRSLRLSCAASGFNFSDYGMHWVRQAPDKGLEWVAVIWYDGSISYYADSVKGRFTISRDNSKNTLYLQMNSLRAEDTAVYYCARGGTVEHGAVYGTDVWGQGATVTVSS VL: DIQMTQSPSSLSASVGDRVTITCRASQGISSWVAWYQQKPEKAPKSLIYGSSRLQSGVPSRFSGSGSGTDFTLTISSLQPEDFATYYCQQYNTYPLTFGGGTKVEIKR | pM | 235 |
| HC 1251_A06 (wt)/LC 1337_A10 (g) (antibody, human IgG1, kappa, V domains shown, IgG format) VH: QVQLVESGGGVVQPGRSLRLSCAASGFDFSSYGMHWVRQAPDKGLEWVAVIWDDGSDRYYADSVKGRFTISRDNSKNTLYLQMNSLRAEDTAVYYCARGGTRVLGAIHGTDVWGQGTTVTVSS VL: DIQMTQSPSSVSASVGDRVTITCRASQGISSWVAWYQQKPGKAPKLLIYGSSRLQSGVPSRFSGSGSGTDFTLTISSLQPEDFATYYCQQYNTYPLTFGGGTKVEIKR | pM | 411 |
| HC 1251_B08 (g)/LC 1337_A07 (wt) (antibody, human IgG1, kappa, V domains shown, IgG format) VH: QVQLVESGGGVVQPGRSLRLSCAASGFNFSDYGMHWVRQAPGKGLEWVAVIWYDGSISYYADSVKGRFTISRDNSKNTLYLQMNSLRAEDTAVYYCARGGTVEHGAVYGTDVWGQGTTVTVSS VL: DIQMTQSPSSLSASVGDRVTITCRASQGISSWVAWYQQKPEKAPKSLIYGASRLQSGVPSRFSGSGSGTDFTLTISSLQPEDFATYYCQQYHTYPLTFGGGTKVEIKR | pM | 349 |
